Biological target: B7-1/CD28 (Homo sapiens, UniProt P33681)
Experiment: CD28/B7-1 ELISA (B7-1/CD28 binding inhibition)
Settings: CD28-Fc coated wells; B7-1-Fc-biotin/streptavidin-alkaline phosphatase detection complex; 1% DMSO
quantity measured: IC50 (µM)

1. Cn1ncc2c3[nH]n(-c4ccc(C(=O)NCc5ccccc5)cc4)c(=O)c3c(-c3cccc(C(F)(F)F)c3)nc21
2. CN(CCC#N)C(=O)c1cccc(-n2[nH]c3c(c(-c4cccc(C(F)(F)F)c4)nc4c3cnn4C)c2=O)c1
// query Param metric = IC50; output whichever of 1 , 2 has the minimum value. Refer to your chosen item by its label in the answer.
// result 1
(1: 0.079 µM, 2: 0.33 µM)

P. Cn1ncc2c3[nH]n(-c4ccc(C(=O)Nc5ccc(O)cc5)cc4)c(=O)c3c(-c3cccc(C(F)(F)F)c3)nc21
Q. Cn1ncc2c3[nH]n(-c4cccc(C(=O)NN)c4)c(=O)c3c(-c3cccc(C(F)(F)F)c3)nc21
// query Consider P and Q . Which of these has its IC50 at a higher number? Refer to your chosen item by its label in the answer.
// result Q

----------
Listing of recorded melting point by entry.

// query Look at this molecule and give its reported melting point. Cn1ncc2c3[nH]n(-c4ccc(Cl)c(C(=O)NCc5ccc(O)c(O)c5)c4)c(=O)c3c(-c3cccc(C(F)(F)F)c3)nc21 [Example 21]
// result 212 to 215 °C

// query Look at this molecule and give its reported melting point. Cn1ncc2c3[nH]n(-c4ccc(C(=O)NCCCO)cc4)c(=O)c3c(-c3cccc(C(F)(F)F)c3)nc21 [Example 28]
// result 193 to 195 °C

// query Look at this molecule and give its reported melting point. Cn1ncc2c3[nH]n(-c4cccc(C(=O)N5CCCC5)c4)c(=O)c3c(-c3cccc(C(F)(F)F)c3)nc21 [Example 11]
// result 255 to 258 °C

// query Look at this molecule and give its reported melting point. Cn1ncc2c3[nH]n(-c4ccc(C(=O)N5CCOCC5)c(F)c4)c(=O)c3c(-c3cccc(C(F)(F)F)c3)nc21 [Example 30]
// result 176 to 179 °C

// query Look at this molecule and give its reported melting point. Cn1ncc2c3[nH]n(-c4ccc(C(=O)NCCCCCN)cc4)c(=O)c3c(-c3cccc(C(F)(F)F)c3)nc21 [Example 39]
// result 234.5 to 236 °C

// query Look at this molecule and give its reported melting point. CN1CCN(C(=O)c2ccc(-n3[nH]c4c(c(-c5cccc(C(F)(F)F)c5)nc5c4cnn5C)c3=O)cc2)CC1 [Example 27]
// result 191 to 194 °C

// query Look at this molecule and give its reported melting point. Cn1ncc2c3[nH]n(-c4ccc(C(=O)N5CCOCC5)cc4)c(=O)c3c(-c3cccc(C(F)(F)F)c3)nc21 [Example 33]
// result 287 to 290 °C

----------
Target: B7-1/CD28 (Homo sapiens)
Test: CD28/B7-1 ELISA (B7-1/CD28 binding inhibition)
Settings: CD28-Fc coated wells; B7-1-Fc-biotin/streptavidin-alkaline phosphatase detection complex; 1% DMSO
pIC50: −log10 of the molar value.
quantity measured: pIC50

mol smiles: Cc1c(CO)cccc1NC(=O)c1ccc(-n2[nH]c3c(c(-c4cccc(C(F)(F)F)c4)nc4c3cnn4C)c2=O)cc1
assayed target: B7-1/CD28 (Homo sapiens)
quantitative result: 7.05
--
mol smiles: Cn1ncc2c3[nH]n(-c4ccc(S(=O)(=O)NCCO)cc4)c(=O)c3c(-c3cccc(C(F)(F)F)c3)nc21
assayed target: B7-1/CD28 (Homo sapiens)
quantitative result: 6.02
--
mol smiles: Cn1ncc2c3[nH]n(-c4cccc(C(=O)NCc5ccc(N)cc5)c4)c(=O)c3c(-c3cccc(C(F)(F)F)c3)nc21
assayed target: B7-1/CD28 (Homo sapiens)
quantitative result: 7.24

a. Cn1ncc2c3[nH]n(-c4ccc(C(=O)NCc5ccc(F)cc5)cc4)c(=O)c3c(-c3cccc(C(F)(F)F)c3)nc21
b. Cn1ncc2c3[nH]n(-c4ccc(C(=O)Nc5ccc(CCO)cc5)cc4)c(=O)c3c(-c3cccc(C(F)(F)F)c3)nc21
// query Param metric = pIC50; output whichever of a , b has the minimum value. Refer to your chosen item by its label in the answer.
// result a
(a: 7.17, b: 7.64)

----------
Molecular target: B7-1/CD28 (Homo sapiens, UniProt P33681)
Sequence (P33681 35-242 limits assumed): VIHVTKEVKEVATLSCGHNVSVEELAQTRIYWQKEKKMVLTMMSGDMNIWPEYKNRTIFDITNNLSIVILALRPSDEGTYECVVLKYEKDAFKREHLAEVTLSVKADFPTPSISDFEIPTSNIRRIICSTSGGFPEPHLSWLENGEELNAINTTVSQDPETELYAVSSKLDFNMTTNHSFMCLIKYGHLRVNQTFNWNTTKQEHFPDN
Assay: CD28/B7-1 ELISA (B7-1/CD28 binding inhibition)
Conditions: CD28-Fc coated wells; B7-1-Fc-biotin/streptavidin-alkaline phosphatase detection complex; 1% DMSO
quantity measured: IC50 (nM)

Study these solved cases before continuing.
molecule: CC(O)c1cccc(NC(=O)c2ccc(-n3[nH]c4c(c(-c5cccc(C(F)(F)F)c5)nc5c4cnn5C)c3=O)cc2F)c1 (stereo not shown) [Example 24]
IC50 (nM): 110
//
molecule: Cn1ncc2c3[nH]n(-c4ccc(C(=O)NCCCCO)cc4)c(=O)c3c(-c3cccc(C(F)(F)F)c3)nc21 [Example 37]
IC50 (nM): 88
//
molecule: CC(C)c1ccc(NC(=O)c2ccc(-n3[nH]c4c(c(-c5cccc(C(F)(F)F)c5)nc5c4cnn5C)c3=O)cc2)cc1 [Example 78]
IC50 (nM): 120

a. Cn1ncc2c3[nH]n(-c4ccc(C(=O)NCCCO)cc4)c(=O)c3c(-c3cccc(C(F)(F)F)c3)nc21 [Example 28]
b. CN(C)CCCNC(=O)c1ccc(-n2[nH]c3c(c(-c4cccc(C(F)(F)F)c4)nc4c3cnn4C)c2=O)cc1 [Example 90]
c. Cn1ncc2c3[nH]n(-c4ccc(C(=O)N5CCC(O)CC5)cc4)c(=O)c3c(-c3cccc(C(F)(F)F)c3)nc21 [Example 94]
d. Cn1ncc2c3[nH]n(-c4ccc(C(=O)Nc5ccc(O)c(O)c5)cc4)c(=O)c3c(-c3cccc(C(F)(F)F)c3)nc21 [Example 98]
e. CN(CCC(N)=O)C(=O)c1ccc(-n2[nH]c3c(c(-c4cccc(C(F)(F)F)c4)nc4c3cnn4C)c2=O)cc1 [Example 85]
// query Your job: order these 5 records by IC50, ascending. List the labels according to the requested ordering.
// result d, a, b, c, e
(d: 36 nM, a: 98 nM, b: 160 nM, c: 1200 nM, e: 1800 nM)

A. Cn1ncc2c3[nH]n(-c4ccc(C(=O)Nc5ccc(F)c(F)c5)cc4)c(=O)c3c(-c3cccc(C(F)(F)F)c3)nc21 [Example 82]
B. COC(=O)[C@H]1CCCN1C(=O)c1cc(-n2[nH]c3c(c(-c4cccc(C(F)(F)F)c4)nc4c3cnn4C)c2=O)ccc1Cl [Example 64]
// query Param metric = IC50; output whichever of A , B has the minimum value. Refer to your chosen item by its label in the answer.
// result A
(A: 120 nM, B: 180 nM)

----------
Target: B7-1/CD28 (Homo sapiens)
Assay: CD28/B7-1 ELISA (B7-1/CD28 binding inhibition)
Settings: CD28-Fc coated wells; B7-1-Fc-biotin/streptavidin-alkaline phosphatase detection complex; 1% DMSO
quantity measured: IC50 (nM)

compound: CN(Cc1ccccc1)C(=O)c1cccc(-n2[nH]c3c(c(-c4cccc(C(F)(F)F)c4)nc4c3cnn4C)c2=O)c1
IC50, nM: 180

compound: Cn1ncc2c3[nH]n(-c4cccc(C(=O)Nc5ccc(CCO)cc5)c4)c(=O)c3c(-c3cccc(C(F)(F)F)c3)nc21
IC50, nM: 110

compound: CC(O)c1cccc(NC(=O)c2cccc(-n3[nH]c4c(c(-c5cccc(C(F)(F)F)c5)nc5c4cnn5C)c3=O)c2)c1 (stereo not drawn)
IC50, nM: 130

----------
Target: B7-1/CD28 (Homo sapiens)
Sequence (P33681 35-242 limits assumed): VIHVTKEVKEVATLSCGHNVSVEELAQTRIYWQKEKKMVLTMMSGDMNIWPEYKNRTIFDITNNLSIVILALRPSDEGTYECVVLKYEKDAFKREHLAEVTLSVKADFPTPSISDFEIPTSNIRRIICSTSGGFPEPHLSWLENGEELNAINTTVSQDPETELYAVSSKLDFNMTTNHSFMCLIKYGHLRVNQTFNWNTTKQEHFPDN
Assay: CD28/B7-1 ELISA (B7-1/CD28 binding inhibition)
Conditions: CD28-Fc coated wells; B7-1-Fc-biotin/streptavidin-alkaline phosphatase detection complex; 1% DMSO
quantity measured: IC50 (nM)

molecule: COc1ccc(CNC(=O)c2cccc(-n3[nH]c4c(c(-c5cccc(C(F)(F)F)c5)nc5c4cnn5C)c3=O)c2)cc1
IC50 / nM: 180

P. Cn1ncc2c3[nH]n(-c4cccc(C(=O)N5CCC[C@H]5C(=O)O)c4)c(=O)c3c(-c3cccc(C(F)(F)F)c3)nc21
Q. CC(O)CNC(=O)c1ccc(-n2[nH]c3c(c(-c4cccc(C(F)(F)F)c4)nc4c3cnn4C)c2=O)cc1 (stereo not drawn)
R. Cn1ncc2c3[nH]n(-c4ccc(C(=O)Nc5cccc6c5CCCC6O)cc4)c(=O)c3c(-c3cccc(C(F)(F)F)c3)nc21 (stereo not drawn)
S. Cn1ncc2c3[nH]n(-c4ccc(F)c(C(=O)N5CCOCC5)c4)c(=O)c3c(-c3cccc(C(F)(F)F)c3)nc21
T. Cn1ncc2c3[nH]n(-c4cccc(C(=O)NCc5ccc(O)c(O)c5)c4)c(=O)c3c(-c3cccc(C(F)(F)F)c3)nc21
// query Your job: order these 5 records by IC50, ascending. List the labels according to the requested ordering.
// result T, Q, P, R, S

1. Cn1ncc2c3[nH]n(-c4ccc(C(=O)NCC5CC5)cc4)c(=O)c3c(-c3cccc(C(F)(F)F)c3)nc21
2. COC(=O)CNS(=O)(=O)c1ccc(-n2[nH]c3c(c(-c4cccc(C(F)(F)F)c4)nc4c3cnn4C)c2=O)cc1
3. Cn1ncc2c3[nH]n(-c4ccc(C(=O)N5CCCC(CO)C5)cc4)c(=O)c3c(-c3cccc(C(F)(F)F)c3)nc21 (stereo not drawn)
4. COCCNC(=O)c1cccc(-n2[nH]c3c(c(-c4cccc(C(F)(F)F)c4)nc4c3cnn4C)c2=O)c1
// query Order the records by IC50, with each subsequent value no larger than the one before. List the labels according to the requested ordering.
// result 2, 3, 1, 4
